# method notes: in vitro
# test conditions: human
reported property: viability at 10 µM (%)
State the answer as a number, implicitly in %.

input: Read the entry CC1=CC(=O)c2ccccc2C1=O [Menadione, 2-methyl-1,4-naphthoquinone, reference compound] and write its reported viability at 10 µM.
output: 100

---

# System: primary human endothelial colony-forming cells (ECFCs), cord blood clones
# method notes: cells
# test conditions: read-out: IC50, range between individual ECFC clones
pIC50: −log10 of the molar value.
reported property: pIC50

input: Read the entry CC1=CC(=O)c2ccccc2C1=O [Menadione, 2-methyl-1,4-naphthoquinone, reference compound] and write its reported pIC50.
output: 4.58 to 5.10

Hello, the source for this data is paper PMC6308159, in case you need it.
